assay target: human TRPA1 (Homo sapiens, UniProt O75762)
Construct: expressed in transfected cells; host or cells: Human embryonic kidney-derived 293T cells, transiently transfected with the pcDNA3.1/zeo(+) human TRPA1 plasmid
Sequence (O75762 whole entry): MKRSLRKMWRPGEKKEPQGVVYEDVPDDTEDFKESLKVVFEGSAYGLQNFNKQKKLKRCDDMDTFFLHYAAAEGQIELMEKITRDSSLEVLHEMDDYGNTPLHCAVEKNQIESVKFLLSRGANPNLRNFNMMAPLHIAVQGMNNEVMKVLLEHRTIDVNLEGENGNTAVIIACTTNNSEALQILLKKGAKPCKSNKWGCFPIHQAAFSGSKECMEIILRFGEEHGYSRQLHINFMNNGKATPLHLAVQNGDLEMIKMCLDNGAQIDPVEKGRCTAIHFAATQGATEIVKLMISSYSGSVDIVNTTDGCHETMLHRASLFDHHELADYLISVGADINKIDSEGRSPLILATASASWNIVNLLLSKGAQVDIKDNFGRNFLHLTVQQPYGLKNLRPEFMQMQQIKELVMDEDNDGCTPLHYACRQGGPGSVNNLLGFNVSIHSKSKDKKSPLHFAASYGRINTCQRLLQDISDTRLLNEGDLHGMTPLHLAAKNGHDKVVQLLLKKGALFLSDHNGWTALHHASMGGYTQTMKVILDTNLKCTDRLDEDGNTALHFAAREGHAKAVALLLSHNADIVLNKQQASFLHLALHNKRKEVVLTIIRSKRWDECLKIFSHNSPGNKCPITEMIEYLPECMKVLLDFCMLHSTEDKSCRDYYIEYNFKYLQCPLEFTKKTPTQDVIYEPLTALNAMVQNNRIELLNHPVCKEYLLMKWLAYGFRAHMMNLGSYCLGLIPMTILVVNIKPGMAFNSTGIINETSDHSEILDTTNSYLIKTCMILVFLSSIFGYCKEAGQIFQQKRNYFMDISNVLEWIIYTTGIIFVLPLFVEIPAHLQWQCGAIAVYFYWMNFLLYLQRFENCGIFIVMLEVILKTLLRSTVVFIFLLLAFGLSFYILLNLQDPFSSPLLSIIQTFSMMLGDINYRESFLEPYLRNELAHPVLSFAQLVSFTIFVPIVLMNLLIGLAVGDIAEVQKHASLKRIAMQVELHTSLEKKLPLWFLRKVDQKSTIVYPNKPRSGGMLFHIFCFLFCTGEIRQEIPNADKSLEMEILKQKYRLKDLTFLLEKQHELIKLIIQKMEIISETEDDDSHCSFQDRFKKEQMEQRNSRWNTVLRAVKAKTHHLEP
test name: Measurement of TRPA1 antagonist activity (intracellular calcium increase, FLIPR, allylisothiocyanate stimulation)
Type: cell-based
details: allylisothiocyanate 20 μM stimulation, FLIPR calcium assay; read-out: antagonism hTRPA1
Experimental: Measurement of TRPA1 Antagonist Activity Human TRPA1 Expression Plasmid […] The 384 well plate was recovered, and the medium was removed. […] Then, allylisothiocyanate (12.5 μL) at a final concentration of 20 μM was added by a fluorescence imaging plate reader (manufactured by Molecular Device, FLIPR), and changes in the relative fluorescence intensity were measured for 5 min. […]
So I've got a bunch of compounds here, and I need their IC50 values.
Answers are plain numbers, in nM.

For orientation, consider the following solved cases.
{"compound string": "O=C(NCc1cccc(OCc2ccc(C(F)(F)F)cc2)c1)[C@@H]1CCCN1S(=O)(=O)c1cccc2nonc12", "IC50 (nM)": 6200}
{"compound string": "O=C(NCc1ccc(Oc2ccnc(C(F)(F)F)c2)cc1)[C@@H]1CCCN1S(=O)(=O)c1ccsc1", "IC50 (nM)": 1000}
{"compound string": "O=C(NCc1cccc(Oc2ccc(C(F)(F)F)cc2)c1)[C@@H]1CCCN1S(=O)(=O)c1nccs1", "IC50 (nM)": 3300}
{"compound string": "O=C(NCc1cccc(OCc2ccc(C(F)(F)F)cc2)c1)[C@@H]1CCCN1S(=O)(=O)c1cccc(Cl)c1", "IC50 (nM)": 260}
{"compound string": "O=C(NCc1ccc(Oc2cccc(C(F)(F)F)c2)cc1)[C@@H]1CCCN1S(=O)(=O)c1ccsc1", "IC50 (nM)": 180}
{"compound string": "O=C(NCc1cccc(OCc2ccc(C(F)(F)F)cc2)c1)[C@@H]1CCCCN1S(=O)(=O)c1ccc(F)cc1", "IC50 (nM)": 780}
{"compound string": "O=C(NCc1cccc(Oc2ccc(C(F)(F)F)cc2)c1)[C@@H]1C=CCN1S(=O)(=O)c1ccsc1", "IC50 (nM)": 57}
{"compound string": "O=C(NCc1cccc(OCc2ccccc2)c1)[C@@H]1CCCN1S(=O)(=O)c1ccco1", "IC50 (nM)": 100}

Batch: IC50 for all items listed.
1. O=C(NCc1cccc(OCc2ccoc2)c1)[C@@H]1CCCN1S(=O)(=O)c1ccc(F)cc1
2. O=C(NCc1cccc(OCc2cccc(C(F)(F)F)c2)c1)[C@@H]1CCCN1S(=O)(=O)c1ccc(F)cc1
3. O=C(NCc1cccc(OCc2ccc(C(F)(F)F)cc2)c1)[C@@H]1CCCN1S(=O)(=O)c1ccsc1

1. 290
2. 25
3. 8.6

Batch: IC50 for all items listed.
1. O=C(NCc1cccc(OCc2ccc(C(F)(F)F)cc2)c1)[C@@H]1C[C@H](O)CN1S(=O)(=O)c1ccc(F)cc1
2. N#Cc1ccc(Oc2cccc(CNC(=O)[C@@H]3CCCN3S(=O)(=O)c3ccc(F)cc3)c2)cc1
3. N#Cc1cccc(S(=O)(=O)N2CCC[C@H]2C(=O)NCc2cccc(OCc3ccc(C(F)(F)F)cc3)c2)c1
4. CN(C)c1ccc(Oc2cccc(CNC(=O)[C@@H]3CCCN3S(=O)(=O)c3ccc(F)cc3)c2)cc1
5. O=C(NCc1cccc(OCc2ccc(C(F)(F)F)cc2)c1)[C@@H]1CCCN1S(=O)(=O)c1cnn(C(F)F)c1
6. O=C(NCc1cccc(OCc2ccnc(C(F)(F)F)c2)c1)[C@@H]1CCCN1S(=O)(=O)c1ccco1
7. O=C(NCc1cccc(OCc2ccccc2)c1)[C@@H]1C=CCN1S(=O)(=O)c1ccco1

1700
270
1100
9900
280
110
83
